The measurements presented in this section are drawn from paper PMC8286599.

Tested on: Salmonella Enteritidis strains; also: key: S- Sensitive; I- Intermediate; R- Resistant
Assay type: cell-based
assay.context: strain S3
readout.name: Antibiotic Susceptibility testing

Recorded results for 4 compounds are shown here.
# smiles.string, readout.name, meas.value
records = [
    ("CC1(C)S[C@@H]2[C@H](NC(=O)[C@H](N)c3ccccc3)C(=O)N2[C@H]1C(=O)O", "Antibiotic Susceptibility testing", "R"),
    ("CN(C)[C@@H]1C(O)=C(C(N)=O)C(=O)[C@@]2(O)C(O)=C3C(=O)c4c(O)cccc4[C@@](C)(O)[C@H]3C[C@@H]12", "Antibiotic Susceptibility testing", "S"),
    ("NC[C@H]1O[C@H](O[C@H]2[C@H](O)[C@@H](O[C@H]3O[C@H](CO)[C@@H](O)[C@H](N)[C@H]3O)[C@H](N)C[C@@H]2N)[C@H](O)[C@@H](O)[C@@H]1O", "Antibiotic Susceptibility testing", "S"),
    ("CCn1cc(C(=O)O)c(=O)c2ccc(C)nc21", "Antibiotic Susceptibility testing", "R"),
]

INPUT: Using Salmonella Enteritidis strains as the test system, report measured Antibiotic Susceptibility testing of COCC1=C(C(=O)O)N2C(=O)[C@@H](NC(=O)/C(=N\OC)c3csc(N)n3)[C@H]2SC1 .
OUTPUT: R

INPUT: Enter Antibiotic Susceptibility testing (test system Salmonella Enteritidis strains) for CO/N=C(\C(=O)N[C@@H]1C(=O)N2C(C(=O)O)=C(COC(C)=O)CS[C@H]12)c1csc(N)n1; also: key: S- Sensitive; I- Intermediate; R- Resistant
OUTPUT: S

INPUT: State measured Antibiotic Susceptibility testing of the compound CO/N=C(\C(=O)N[C@@H]1C(=O)N2C(C(=O)[O-])=C(C[N+]3(C)CCCC3)CS[C@H]12)c1csc(N)n1 with Salmonella Enteritidis strains.
OUTPUT: S

INPUT: Quote Antibiotic Susceptibility testing with test system Salmonella Enteritidis strains for C[C@@H](O)[C@H]1C(=O)N2C(C(=O)O)=C(S[C@@H]3CN[C@H](C(=O)N(C)C)C3)[C@H](C)[C@H]12; also: key: S- Sensitive; I- Intermediate; R- Resistant
OUTPUT: S

INPUT: Send back Salmonella Enteritidis strains Antibiotic Susceptibility testing of CCN1CCN(C(=O)N[C@@H](C(=O)N[C@@H]2C(=O)N3C(C(=O)O)=C(CSc4nnnn4C)CS[C@H]23)c2ccc(O)cc2)C(=O)C1=O only.
OUTPUT: S

INPUT: Quote Antibiotic Susceptibility testing with test system Salmonella Enteritidis strains for O=C(N[C@H](CO)[C@H](O)c1ccc([N+](=O)[O-])cc1)C(Cl)Cl; also: key: S- Sensitive; I- Intermediate; R- Resistant
OUTPUT: S

INPUT: Report its Antibiotic Susceptibility testing with Salmonella Enteritidis strains as the test system: C[C@H]1[C@H](NC(=O)/C(=N\OC(C)(C)C(=O)O)c2csc(N)n2)C(=O)N1S(=O)(=O)O
OUTPUT: S

INPUT: Tell me its Antibiotic Susceptibility testing on Salmonella Enteritidis strains: Cc1noc(NS(=O)(=O)c2ccc(N)cc2)c1C
OUTPUT: S
